The values you see were collected from PubChem BioAssay AID1645863.

# testedSystem: Ubiquitin carboxyl-terminal hydrolase 10 (Homo sapiens) (UniProt Q14694)
# Sequence (Q14694 whole entry, looked up): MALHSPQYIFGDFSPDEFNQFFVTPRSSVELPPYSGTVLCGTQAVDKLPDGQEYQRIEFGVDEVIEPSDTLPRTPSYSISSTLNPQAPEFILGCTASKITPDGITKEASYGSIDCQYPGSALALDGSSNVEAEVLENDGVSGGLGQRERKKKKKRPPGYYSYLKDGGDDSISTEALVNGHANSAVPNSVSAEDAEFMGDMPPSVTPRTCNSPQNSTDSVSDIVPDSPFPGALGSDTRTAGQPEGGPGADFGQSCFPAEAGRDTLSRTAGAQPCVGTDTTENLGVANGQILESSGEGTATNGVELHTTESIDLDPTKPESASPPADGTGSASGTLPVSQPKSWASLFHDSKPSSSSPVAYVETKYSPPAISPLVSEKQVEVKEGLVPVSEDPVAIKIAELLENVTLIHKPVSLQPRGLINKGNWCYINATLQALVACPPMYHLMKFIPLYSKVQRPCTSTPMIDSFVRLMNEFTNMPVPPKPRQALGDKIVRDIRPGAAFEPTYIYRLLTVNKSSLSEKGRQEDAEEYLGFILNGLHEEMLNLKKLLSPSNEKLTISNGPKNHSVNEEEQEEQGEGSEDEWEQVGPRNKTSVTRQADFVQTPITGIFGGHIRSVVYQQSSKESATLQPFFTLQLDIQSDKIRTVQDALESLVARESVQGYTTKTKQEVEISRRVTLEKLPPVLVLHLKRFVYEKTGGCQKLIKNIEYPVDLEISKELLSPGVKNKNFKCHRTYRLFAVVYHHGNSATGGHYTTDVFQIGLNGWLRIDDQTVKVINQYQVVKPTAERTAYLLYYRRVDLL
# testDetails: ubiquitin-specific protease 10 DUB inhibitors, concentration-effect, biochemical, verification of primary screen actives (AID 1645863);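 also: potency values describe inhibition of USP10 cleavage of a fluorogenic ubiquitin substrate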
# measurementConditions: USP10 deubiquitinase enzymatic assay
Calls of active or inactive are those of the source. No rule for the calls is given here.
quantityMeasured: IC50

Solved entries:
> print(dat)
                                   compound  quantitymeasured  recordedmeasurement
1  COc1ccc(CC(=O)OCC(=O)N2c3ccccc3NC(=O)C2(C)C)cc1              IC50   > 40 µM (inactive)
2  CCOc1cc2c(cc1OCC)C(c1cc3c(cc1Br)OCO3)NCC2 (stereo not given)              IC50   > 40 µM (inactive)
3  COc1ccc(CC(=O)Nc2c(NCc3ccccc3)c3ccccc3oc2=O)cc1              IC50              38.4 µM
4  CCCCCCCc1cc(OC(=O)c2c(CCCCCCC)cc(O)cc2O[C@@H]2O[C@H](CO)[C@@H](O)[C@H](O)[C@H]2O)cc(O)c1C(=O)O              IC50              3.94 µM

Now examine the next entry.
Task item: Form field: IC50 recorded for CC1CCCN(S(=O)(=O)c2ccc(-n3cnc(C(=O)NC4CC4)c3)nc2)C1 (stereo not given) with Ubiquitin carboxyl-terminal hydrolase 10 (Homo sapiens) (UniProt Q14694) (enter value)
Reply: 23.2 µM

---

# testedSystem: Ubiquitin carboxyl-terminal hydrolase 10 (Homo sapiens)
# testDetails: ubiquitin-specific protease 10 DUB inhibitors, concentration-effect, biochemical, verification of primary screen actives (AID 1645863);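 also: potency values describe inhibition of USP10 cleavage of a fluorogenic ubiquitin substrate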
# measurementConditions: USP10 deubiquitinase enzymatic assay
Active and inactive are the calls of the source. How the calls were made is not given here.
# output must be one of 1.0 (active), 0.0 (inactive)

Would you please look over these solved cases?
> print(dat)
                                    molecule                              testedsystem  assignedclass
 1  O=C(CC1C(=O)N(C2CCCC2)c2nc3ccccc3n21)Nc1ccccc1 (stereo not drawn)  Ubiquitin carboxyl-terminal hydrolase 10 (Homo sapiens)            0.0
 2  COc1cn(-c2ccc(F)cc2)nc1C(=O)Nc1ccc(Cl)cc1Cl  Ubiquitin carboxyl-terminal hydrolase 10 (Homo sapiens)            1.0
 3  Cc1ccc(NC(=O)Nc2ccc(C)n(CC(=O)Nc3ccc(C)c(C)c3)c2=O)cc1  Ubiquitin carboxyl-terminal hydrolase 10 (Homo sapiens)            1.0
 4  O=C1CC(c2cc3c(cc2Br)OCO3)c2cc3c(cc2N1)OCCO3 (stereo not drawn)  Ubiquitin carboxyl-terminal hydrolase 10 (Homo sapiens)            0.0
 5  Cc1noc(-c2ccnc(-n3cnc(C(=O)NCC4CC4)c3)c2)n1  Ubiquitin carboxyl-terminal hydrolase 10 (Homo sapiens)            0.0
 6  Cc1ccc(C)c(S(=O)(=O)N2CCN(c3ccc4nnc(-c5ccco5)n4n3)CC2)c1  Ubiquitin carboxyl-terminal hydrolase 10 (Homo sapiens)            0.0
 7  O=C(c1ccccn1)N1CCC2(CC1)CC1(CO2)Nc2ccccc2-n2cccc21 (stereo not drawn)  Ubiquitin carboxyl-terminal hydrolase 10 (Homo sapiens)            0.0
 8  COc1ccc(C)cc1NC(=O)C1CC(=O)Nc2nc3ccccc3n21 (stereo not drawn)  Ubiquitin carboxyl-terminal hydrolase 10 (Homo sapiens)            1.0
 9  COc1ccc(/C=C/C(=O)Nc2ccc3nc(N4CCN(c5ncccn5)CC4)cc(C)c3c2)cc1  Ubiquitin carboxyl-terminal hydrolase 10 (Homo sapiens)            0.0
10  NS(=O)(=O)c1cccc(NC(=O)/C=C/c2cn(-c3ccccc3)nc2-c2cccc([N+](=O)[O-])c2)c1  Ubiquitin carboxyl-terminal hydrolase 10 (Homo sapiens)            1.0

Task item: Given `COc1ccc(-c2n[nH]n3c2nc(=O)c2ccc(C(=O)NCc4ccco4)cc23)cc1` , state the outcome it received in this test.
Reply: 0.0

Task item: Check the results log: what was the call for `N#Cc1cccnc1N1CCN(C(=O)Nc2cccc3ccccc23)CC1` ?
Reply: 0.0

Task item: Dear all, I need the recorded test outcome for `O=C(NCc1ccc2c(c1)OCO2)c1cc2c(s1)-c1ccccc1OC2` , thank you.
Reply: 0.0

Task item: // return assay outcome for `O=c1c2ccccc2nc(CSc2cccc(Cl)c2Cl)n1-c1ccccc1`
Reply: 0.0

---

# testedSystem: Ubiquitin carboxyl-terminal hydrolase 10 (Homo sapiens)
# testDetails: ubiquitin-specific protease 10 DUB inhibitors, concentration-effect, biochemical, verification of primary screen actives (AID 1645863);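 also: potency values describe inhibition of USP10 cleavage of a fluorogenic ubiquitin substrate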
# measurementConditions: USP10 deubiquitinase enzymatic assay
The source made the active and inactive calls. The rule behind the calls is not given here.
The reply should be one of these categories: T = active, F = inactive

> print(dat)
                                   compound  assignedclass
1  O=C(COC(=O)c1ccc(NS(=O)(=O)c2ccc(F)c(F)c2)cc1)Nc1ccc(OCc2ccccc2)cc1              T
2  Cc1ccc2cc(-c3noc(CCC(=O)NC4CCCC4)n3)c(=O)[nH]c2c1              F
3      O=c1c2cc(Br)ccc2[nH]c(=S)n1Cc1cccnc1              F
4  COc1ccc(-c2cc3nc([C@H](C)NC(=O)Cc4ccccc4C)nn3cn2)cc1              F
5  CCOC(=O)c1cc2c(ccn2-c2ccc(F)cc2)n1CC(=O)Nc1ccc2c(c1)OCCO2              T
6  COc1cc(NC(=O)Cn2c(=O)n(-c3ccc(CC(=O)NCc4ccco4)cc3)c(=O)c3ccccc32)cc(OC)c1              T

Task item: Hi, do you know how `O=c1cc(-c2ccc(O)c(O)c2)oc2cc(O)cc(O)c12` came out in this test?
Reply: T

Task item: For O=C1CSC(c2ccc(F)cc2)c2c(n(C3CCCCCC3)[nH]c2=O)N1 (stereo unspecified) , what call appears in the results of this test?
Reply: T

Task item: Recorded call for `NS(=O)(=O)c1ccc(CNS(=O)(=O)/C=C/c2ccccc2)cc1` ?
Reply: F

Task item: What call does the record list for `CCc1cc(=O)oc2c(C)c(OCC(=O)NCc3ccccn3)ccc12` ?
Reply: F

Task item: Name the outcome recorded for `CCc1nnc(-c2ccc3ccn(CC(=O)N4CCN(c5ccccn5)CC4)c3c2)o1` in the assay.
Reply: F

Task item: Status in this test for `O=c1c2[nH]c3ccccc3c2ncn1CCC1=CCCCC1` ?
Reply: F

Task item: Outcome? `CCOC(=O)C1CCN(Cc2cc(=O)oc3cc(O)c(O)cc23)CC1`
Reply: T

Task item: Record lookup: outcome of this test for COc1ccc(C)cc1NC(=O)CN1C(=O)C2CCCC2=Nc2ccccc21 (stereo unspecified) ?
Reply: F

Task item: Check the results log: what was the call for `O=C(Cn1ccc2ccn(Cc3ccccc3)c2c1=O)Nc1ccccc1Cl` ?
Reply: F

Task item: Hey, what did the test say about `O=C(Cc1ccc(-n2c(=O)c3ccccc3n(Cc3cccc(F)c3)c2=O)cc1)NC1CCCC1` ?
Reply: F

---

# testedSystem: Ubiquitin carboxyl-terminal hydrolase 10 (Homo sapiens) (UniProt Q14694)
# testDetails: ubiquitin-specific protease 10 DUB inhibitors, concentration-effect, biochemical, verification of primary screen actives (AID 1645863);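 also: potency values describe inhibition of USP10 cleavage of a fluorogenic ubiquitin substrate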
# measurementConditions: USP10 deubiquitinase enzymatic assay
Activity calls are given as the source filed them. How the calls were made is not given here.
Log the outcome using a class from active, inactive

molecule	testedSystem	assignedClass
CCn1cc2c(n1)c(=O)n(Cc1ccccc1)c(=O)n2CC(=O)Nc1ccc(OC)cc1	Ubiquitin carboxyl-terminal hydrolase 10 (Homo sapiens) (UniProt Q14694)	active
O=C(c1ccc2c(c1)OCO2)[C@@H]1[C@H](C(=O)OC(c2ccccc2)c2ccccc2)N2c3ccccc3C=CC2[C@@]12C(=O)Nc1ccccc12 (some centres not stated)	Ubiquitin carboxyl-terminal hydrolase 10 (Homo sapiens) (UniProt Q14694)	inactive
COc1ccc(NC(=O)Cn2cc(C(=O)c3ccc(C)cc3)c(=O)c3ccccc32)cc1	Ubiquitin carboxyl-terminal hydrolase 10 (Homo sapiens) (UniProt Q14694)	active
O=C(O)c1ccccc1C(=O)Nc1ccc(SC(C(=O)Nc2cccc(Cl)c2)c2ccccc2)cc1 (configuration not stated)	Ubiquitin carboxyl-terminal hydrolase 10 (Homo sapiens) (UniProt Q14694)	active
NC(=O)c1ccccc1NC(=O)COc1ccc2c(c1)oc(=O)c1ccccc12	Ubiquitin carboxyl-terminal hydrolase 10 (Homo sapiens) (UniProt Q14694)	active

Task item: Please indicate how the test categorized COC(=O)c1ccccc1NC(=O)CSc1nnc(CNc2ccc(F)cc2)n1CC1CCCO1 (configuration not stated) .
Reply: inactive

Task item: What call does the record list for `N#Cc1cccc(NC(=O)Nc2cccn(Cc3ccc(F)cc3)c2=O)c1` ?
Reply: inactive

Task item: Identify the outcome logged in this assay for the molecule shown: `O=S1(=O)CCN(Cc2c(F)cccc2F)c2c(F)nc(N3CCOCC3)c(F)c21`
Reply: inactive

Task item: What outcome does the record of this test show for `Oc1cccc2c(-c3ccc(O)c4c(O)cccc34)ccc(O)c12` ?
Reply: inactive

Task item: Could you please tell me the result logged for `Cc1ccc(CNC(=O)Cn2c(=O)n(CCCC(=O)NCc3ccc(F)cc3)c(=O)c3ccccc32)cc1` in this assay?
Reply: active

Task item: Look up the recorded call for `O=C(COc1nc2ccccc2nc1N1CCOCC1)NC(c1ccccc1)c1ccccc1` in this test.
Reply: inactive
